Taken from patent US20050256003A1.

system: monocotyledonous and dicotyledonous test plants; assay: Post-emergence herbicidal action; type: in vivo; settings: Euphorbia, 250 g a.i./ha, about 18 days, rating 0-10
Please assign No whenever Post-emergence action, Euphorbia is at or above 8, and Yes whenever it is below.

Worked examples follow.
# compound, study.system, classification
rows = [
    ("Cn1c(C(F)(F)F)nn(Cc2nc(C(F)(F)F)ccc2C(=O)C2=C(O)CCCC2=O)c1=O [Compound A1.007]", "monocotyledonous and dicotyledonous test plants", "Yes"),
    ("CCOc1nn(Cc2nc(C(F)(F)F)ccc2C(=O)c2cnn(C)c2O)c(=O)n1C1CC1 [Compound B1.056]", "monocotyledonous and dicotyledonous test plants", "No"),
    ("COc1nn(Cc2nc(C(F)(F)F)ccc2C(=O)c2cnn(C)c2O)c(=O)s1 [Compound B1.096]", "monocotyledonous and dicotyledonous test plants", "Yes"),
]

Q: # TODO verify Post-emergence action, Euphorbia < 8 strictly for this compound: Cc1nn(Cc2nc(C(F)(F)F)ccc2C(=O)C2=C(O)C(C)(C)CC(C)(C)C2=O)c(=O)s1 [Compound A7.009]
Result: Yes

Q: Also check Cn1ncn(Cc2nc(C(F)(F)F)ccc2C(=O)C2=C(O)C(C)(C)C(=O)C(C)(C)C2=O)c1=O [Compound A8.080]
Result: No

Q: Try this compound too: Cn1ncn(Cc2nc(C(F)(F)F)ccc2C(=O)C2=C(O)CCCC2=O)c1=O [Compound A1.073]
Result: No

---

system: monocotyledonous and dicotyledonous test plants; test: Herbicidal action prior to emergence of the plants (pre-emergence action); format: in vivo; set-up: key: 10=total damage; 0=no action; Ratings of from 10 to 7 (especially from 10 to 8) indicate good to very good herbicidal action; settings: Echinochloa; 250 g a.i./ha; pre-emergence spray; evaluated after 3 weeks; scale 10=total damage, 0=no action
Assignment: determine reported Pre-emergence action: Echinochloa (rating) for the given compounds.
One number for each entry.

# compound, val
records = [
    ("Cn1ncc(C(=O)c2ccc(C(F)(F)F)nc2Cn2cnn(C)c2=O)c1O", 10),
    ("Cc1nn(CCOCc2nc(C(F)(F)F)ccc2C(=O)C2=C(O)C3CCC(C3)C2=O)c(=O)o1 (stereo not shown)", 10),
    ("Cc1nn(Cc2nc(C(F)(F)F)ccc2C(=O)C2=C(O)CCCC2=O)c(=O)s1", 5),
]

Proceed to the following item.
Q: Entry Cn1ncn(Cc2nc(C(F)(F)F)ccc2C(=O)C2=C(O)C(C)(C)C(=O)C(C)(C)C2=O)c1=O has what Pre-emergence action: Echinochloa (rating)?
Result: 10

---

test system: monocotyledonous and dicotyledonous test plants; assay: Herbicidal action prior to emergence of the plants (pre-emergence action); assay type: in vivo; settings: Cyperus; 250 g a.i./ha; pre-emergence spray; evaluated after 3 weeks; scale 10=total damage, 0=no action
Task for the reader: assign each of the following compounds its reported Pre-emergence action: Cyperus (rating).
Answers are plain numbers.

Example entries begin here.
# compound, parameter.measured, val
records = [
    ("COc1nn(Cc2nc(C(F)(F)F)ccc2C(=O)C2=C(O)CCCC2=O)c(=O)s1", "Pre-emergence action: Cyperus (rating)", 8),
    ("Cn1ncn(Cc2nc(C(F)(F)F)ccc2C(=O)C2=C(O)C3CCC(C3)C2=O)c1=O (stereo not shown)", "Pre-emergence action: Cyperus (rating)", 7),
    ("Cn1ncn(Cc2nc(C(F)(F)F)ccc2C(=O)C2=C(O)C(C)(C)C(=O)C(C)(C)C2=O)c1=O", "Pre-emergence action: Cyperus (rating)", 0),
]

Q: Query for monocotyledonous and dicotyledonous test plants: what Pre-emergence action: Cyperus (rating) does the record show for COc1nn(Cc2nc(C(F)(F)F)ccc2C(=O)c2cnn(C)c2O)c(=O)s1 ?
Result: 7

---

test system: monocotyledonous and dicotyledonous test plants; test: Herbicidal action prior to emergence of the plants (pre-emergence action); type: in vivo; set-up: key: 10=total damage; 0=no action; Ratings of from 10 to 7 (especially from 10 to 8) indicate good to very good herbicidal action; settings: Echinochloa; 250 g a.i./ha; pre-emergence spray; evaluated after 3 weeks; scale 10=total damage, 0=no action
parameter.measured: Pre-emergence action: Echinochloa (rating)
Give bare numbers.

These solved cases illustrate the format of a correct answer.
# compound, val
rows = [
    ("Cn1ncn(Cc2nc(C(F)(F)F)ccc2C(=O)C2=C(O)C3CCC(C3)C2=O)c1=O (centres unmarked)", 0),
    ("CC(C)N1CC(=O)N(Cc2nc(C(F)(F)F)ccc2C(=O)c2cnn(C)c2O)C1=O", 9),
    ("CSC(C)n1c(C)cc(=O)n1Cc1nc(C(F)(F)F)ccc1C(=O)C1=C(O)CCCC1=O (racemic)", 10),
    ("Cc1nn(Cc2nc(C(F)(F)F)ccc2C(=O)c2cnn(C)c2O)c(=O)o1", 9),
    ("Cn1ncn(Cc2nc(C(F)(F)F)ccc2C(=O)C2=C(O)CCCC2=O)c1=O", 3),
]

Batch request: Pre-emergence action: Echinochloa (rating) per item, same order as input.
1. Cc1nn(Cc2nc(C(F)(F)F)ccc2C(=O)C2=C(O)C3CCC(C3)C2=O)c(=O)s1 (centres unmarked)
2. Cc1nn(Cc2nc(C(F)(F)F)ccc2C(=O)C2=C(O)C(C)(C)C(=O)C(C)(C)C2=O)c(=O)o1

Result:
1: 7; 2: 10

Q: I have this compound here, COc1nn(Cc2nc(C(F)(F)F)ccc2C(=O)C2=C(O)CCCC2=O)c(=O)s1 , and I need its recorded Pre-emergence action: Echinochloa (rating).
Result: 9

---

Kindly state Pre-emergence action: Scirpus (rating) for each of the entries shown.
test system: monocotyledonous and dicotyledonous test plants; test: Herbicidal action prior to emergence of the plants (pre-emergence action); type: in vivo; settings: Scirpus; 250 g a.i./ha; pre-emergence spray; evaluated after 3 weeks; scale 10=total damage, 0=no action
Numbers only.

Give Pre-emergence action: Scirpus (rating) for each of the items listed below.
1. CC(C)N1CC(=O)N(Cc2nc(C(F)(F)F)ccc2C(=O)c2cnn(C)c2O)C1=O
2. Cn1ncn(Cc2nc(C(F)(F)F)ccc2C(=O)C2=C(O)CCCC2=O)c1=O
3. Cc1nn(Cc2nc(C(F)(F)F)ccc2C(=O)C2=C(O)C(C)(C)C(=O)C(C)(C)C2=O)c(=O)o1
4. Cc1nn(Cc2nc(C(F)(F)F)ccc2C(=O)C2=C(O)CCCC2=O)c(=O)s1
5. CSC(C)n1c(C)cc(=O)n1Cc1nc(C(F)(F)F)ccc1C(=O)C1=C(O)CCCC1=O (racemic)

Result:
[9, 10, 0, 10, 9]

---

tested on: selected test plants; assay: Post-emergence action in a different test arrangement (Table B3); format: in vivo; details: Nasturtium, 250 g a.i./ha
I'd appreciate it if you could supply Post-emergence action (different test arrangement), Nasturtium values for the items below.
Answers are plain numbers.

Quick one: give me Post-emergence action (different test arrangement), Nasturtium for each item below, same order please.
1. CN1CCN(Cc2nc(C(F)(F)F)ccc2C(=O)C2=C(O)CCCC2=O)C1=O [Compound A1.213]
2. CC1CCN(Cc2nc(C(F)(F)F)ccc2C(=O)c2cnn(C)c2O)C1=O (stereo not drawn) [Compound B1.226]
3. Cn1ncc(C(=O)c2ccc(C(F)(F)F)nc2CN2CCC2=O)c1O [Compound B1.225]
4. O=C1CCCC(O)=C1C(=O)c1ccc(C(F)(F)F)nc1CN1CCCC1=O [Compound A1.219]
5. CN1CCN(Cc2nc(C(F)(F)F)ccc2C(=O)c2cnn(C)c2O)C1=O [Compound B1.211]
6. O=C1CCCC(O)=C1C(=O)c1ccc(C(F)(F)F)nc1CN1CN(c2ccc(Cl)cc2)CC1=O [Compound A1.237]
7. CC1CCN(Cc2nc(C(F)(F)F)ccc2C(=O)C2=C(O)CCCC2=O)C1=O (stereo not drawn) [Compound A1.222]

Result:
[9, 10, 10, 10, 10, 9, 10]

Kindly give each listed record's Post-emergence action (different test arrangement), Nasturtium.
1. Cn1ncc(C(=O)c2ccc(C(F)(F)F)nc2CN2CCCC2=O)c1O [Compound B1.223]
2. Cn1c(=O)n(Cc2nc(C(F)(F)F)ccc2C(=O)C2=C(O)CCCC2=O)c(=O)n1C [Compound A1.211]

Result:
10
10

---

test system: monocotyledonous and dicotyledonous test plants; experiment: Post-emergence herbicidal action; assay type: in vivo; conditions: Echinochloa, 250 g a.i./ha, about 18 days, rating 0-10
parameter.measured: Post-emergence action, Echinochloa
One number for each entry.

Illustrative cases are given below, each with its answer.
# record.smiles, Post-emergence action, Echinochloa
measured = [
    ("Cn1ncc(C(=O)c2ccc(C(F)(F)F)nc2Cn2cnn(C)c2=O)c1O", 9),
    ("COc1nn(Cc2nc(C(F)(F)F)ccc2C(=O)c2cnn(C)c2O)c(=O)n1C1CC1", 9),
    ("COc1nn(Cc2nc(C(F)(F)F)ccc2C(=O)C2=C(O)CCCC2=O)c(=O)n1C1CC1", 7),
]

Shift focus to the following entry.
Q: // lookup Post-emergence action, Echinochloa | system=monocotyledonous and dicotyledonous test plants | key= CSC(=O)n1c(C)cc(=O)n1Cc1nc(C(F)(F)F)ccc1C(=O)C1=C(O)C(C)(C)C(=O)C(C)(C)C1=O
Result: 9
